- Assay method text: LAP4-GFP expression modulators in yeast, confirmation, cell-based, cherry picks, flow cytometry, mother/daughter gates (AID 2271);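 note: ratio of sample to DMSO plate mean so 100% equals DMSO level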
- Measurement setup: S. cerevisiae LAP4-GFP strain, 3 h, at 10 µM, stronger effect = higher value
Measurement kind: GFP response relative to DMSO (%)
Only the number, expressed in %, is required.

Reference set, count: 3
compound=CC1(C)OC(c2ccccc2)=C/C(=C/C=C2C(=O)NC(=S)NC2=O)O1 test_result=203
compound="Cc1ccc(/C=C2\\C(=O)NC(=O)N(CC3CCCO3)C2=O)s1 (stereo unspecified)" test_result=102
compound=C[C@H](O)[C@H]1CC[C@H]2[C@@H]3CCC4=CC(=O)CC[C@]4(C)[C@H]3CC[C@]12C test_result=117

Output measured GFP response relative to DMSO for this item: O=C1NC(=O)N(CCc2ccc(F)cc2)C(=O)/C1=C/c1cccs1
152

Tell me GFP response relative to DMSO reported for CCC(C)N1C(=O)/C(=C\c2cnc(N(C)C)nc2)C(=O)NC1=S (stereo unspecified)
97.4

Give a short answer stating reported GFP response relative to DMSO for C[C@]12CCC(=O)C(O)=C1CC[C@@H]1[C@@H]2CC[C@]2(C)C(=O)CC[C@@H]12 .
102

====

- Tested on: Lethal factor (Bacillus anthracis)
- Assay method text: Lethal factor protease inhibitors, Bacillus anthracis, multiplex microsphere cleavage assay, validation set (AID 588461)
- Measurement setup: flow cytometry, at 10 µM, stronger effect = higher value
Measurement kind: inhibition (%)
Record the value in %, omitting the unit from your answer.

Previously resolved entries follow.
molecule="COc1cc(C2CC(=O)NC3=C2C(=O)CC(C)(C)C3)ccc1O (configuration not stated)" test_result=0
molecule=CCN(CCCc1ccccc1)CCCc1ccccc1 test_result=-2.4
molecule=CC(C)C[C@H](NC(=O)NC(C)C)C(=O)O test_result=2.9
molecule="COc1ccc(CN2CC3CC(C2)c2cccc(=O)n2C3)cc1OC (configuration not stated)" test_result=-0.8
molecule=COc1ccccc1C(=O)Nc1cc2cc(Br)ccc2oc1=O test_result=0.4
molecule=Oc1[nH]c2ccccc2c1N=Nc1ccccc1 test_result=1.4
molecule=CC(C)CCn1c(N2CCc3ccccc3C2)nc2c1c(=O)[nH]c(=O)n2C test_result=4
molecule="c1ccc2c(c1)OCC(C1=NCCN1)O2 (configuration not stated)" test_result=0.2
molecule="CC[C@]12C=CCN3CCC4(c5cc(Br)c(OC)cc5N(C)C4[C@@](O)(C(=O)OC)[C@@H]1OC(C)=O)C32 (some centres not stated)" test_result=-5.6
molecule="OC12CCCCC1C(c1ccc3c(c1)OCO3)N(Cc1cccc(F)c1)CC2 (configuration not stated)" test_result=-2.8

Given COCC(C)NC(=O)c1ccc(CN2CCc3ccccc3C2)cc1 (configuration not stated) , report its inhibition on Lethal factor (Bacillus anthracis).
-7.8

Report inhibition on Lethal factor (Bacillus anthracis) for this entry: O=C1NC(=O)C2(Cc3ccccc3N3CCCC32)C(=O)N1c1ccc(Cl)cc1 (configuration not stated)
0.9

====

- Tested on: Botulinum neurotoxin type F light chain protease (Clostridium botulinum)
- Assay method text: Botulinum neurotoxin type F light chain protease inhibition, multiplex microsphere flow cytometry, validation set (AID 588459)
- Measurement setup: multiplex microsphere protease substrate cleavage assay, at 10 µM, stronger effect = higher value
Measurement kind: inhibition (%)
Just the number please, in %, no unit attached.

Examples with answers:
molecule=COc1cc(CNCCc2ccccc2F)ccc1OCC(=O)N1CCCCC1 tested_on="Botulinum neurotoxin type F light chain protease (Clostridium botulinum)" unit_name=% test_result=5.4
molecule="COC(=O)C1=C(C)NC(C)=C(C(=O)OCCN(C)Cc2ccccc2)C1c1cccc([N+](=O)[O-])c1 (stereo unspecified)" tested_on="Botulinum neurotoxin type F light chain protease (Clostridium botulinum)" unit_name=% test_result=-2.1
molecule="CC(NC(=O)c1ccc(OC2CCN(Cc3ccccn3)CC2)cc1)c1ccccc1 (stereo unspecified)" tested_on="Botulinum neurotoxin type F light chain protease (Clostridium botulinum)" unit_name=% test_result=2.8
molecule="COc1ccc(C2NC(C(=O)O)Cc3c2[nH]c2ccccc32)cc1CN1CCN(c2ccc(F)cc2)CC1 (stereo unspecified)" tested_on="Botulinum neurotoxin type F light chain protease (Clostridium botulinum)" unit_name=% test_result=8.8
molecule=CCOC(=O)c1c(C)oc2c1C(=O)c1ccccc1C2=O tested_on="Botulinum neurotoxin type F light chain protease (Clostridium botulinum)" unit_name=% test_result=3.1
molecule="Cc1ccc(C(=O)Nc2ccccc2C(=O)NC(C(=O)O)C(C)C)cc1 (stereo unspecified)" tested_on="Botulinum neurotoxin type F light chain protease (Clostridium botulinum)" unit_name=% test_result=4.4
molecule=COc1cc(C(=O)N/C(=C\c2cn(C)c3ccccc23)C(=O)NCCCO)cc(OC)c1OC tested_on="Botulinum neurotoxin type F light chain protease (Clostridium botulinum)" unit_name=% test_result=2
molecule="CC1/C(=C\\c2ccc(Cl)cc2)C(=O)C2CC1C2(C)C (stereo unspecified)" tested_on="Botulinum neurotoxin type F light chain protease (Clostridium botulinum)" unit_name=% test_result=5.2
molecule=O=C(N1CCCC1)C12CC3CC(C1)CC(C(=O)N1CCCC1)(C3)C2 tested_on="Botulinum neurotoxin type F light chain protease (Clostridium botulinum)" unit_name=% test_result=-1.6
molecule="COc1ccc(NC(=O)C2C(=O)N(CCO)C3(C)CC2c2ccccc2O3)cc1 (stereo unspecified)" tested_on="Botulinum neurotoxin type F light chain protease (Clostridium botulinum)" unit_name=% test_result=0.1

Retrieve inhibition measured for CCOc1ccccc1OCCOc1ccc(F)cc1 and print it.
0.7
